# systemUnderTest: recombinant human AChE (Homo sapiens)
# Sequence (P22303 32-614): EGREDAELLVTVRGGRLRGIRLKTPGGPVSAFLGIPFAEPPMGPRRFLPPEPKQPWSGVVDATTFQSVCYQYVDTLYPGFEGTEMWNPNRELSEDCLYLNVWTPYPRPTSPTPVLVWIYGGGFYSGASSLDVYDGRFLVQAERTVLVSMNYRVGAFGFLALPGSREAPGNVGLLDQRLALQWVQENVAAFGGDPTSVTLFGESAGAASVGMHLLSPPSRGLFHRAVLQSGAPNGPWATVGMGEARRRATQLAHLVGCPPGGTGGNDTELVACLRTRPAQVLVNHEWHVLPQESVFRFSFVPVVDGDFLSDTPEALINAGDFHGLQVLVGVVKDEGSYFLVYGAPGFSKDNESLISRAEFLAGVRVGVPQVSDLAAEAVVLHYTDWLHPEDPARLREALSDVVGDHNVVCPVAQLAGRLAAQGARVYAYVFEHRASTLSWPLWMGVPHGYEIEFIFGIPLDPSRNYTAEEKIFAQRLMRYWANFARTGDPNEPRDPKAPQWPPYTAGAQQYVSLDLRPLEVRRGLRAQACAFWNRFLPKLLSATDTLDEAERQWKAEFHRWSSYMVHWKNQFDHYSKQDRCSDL
Counter-ions that a name gives are not always drawn.
Please note: Y applies when Efficacy is -90 or greater, and N applies otherwise.

Check out these entries, answers already filled in.
>>> answerlabel("CCOP(=S)(Oc1cnc(C(C)(C)C)nc1)OC(C)C (stereo not shown) [Tebupirimfos]")
"N"
>>> answerlabel("N#Cc1sc2c(=O)c3ccccc3c(=O)c=2sc1C#N [Dithianon]")
"Y"
>>> answerlabel("COP(=O)(OC)Oc1ccc([N+](=O)[O-])cc1 [Methylparaoxon]")
"N"

API: above_or_equal(metric=Efficacy, cutoff=-90) for item COc1cc2nc(N3CCN(C(=O)c4ccco4)CC3)nc(N)c2cc1OC [Prazosin]
Y

Repeat with COc1cc2c(N3CCN(C(=O)Nc4ccc(OC(C)C)cc4)CC3)ncnc2cc1OCCCN1CCCCC1 [Tandutinib, reference compound]
Y

Repeat with CCCSP(=O)(OCC)Oc1ccc(Br)cc1Cl (stereo not shown) [Profenofos]
Y

Repeat with Oc1ccc(C(O)CNCCCCCCNCC(O)c2ccc(O)c(O)c2)cc1O (stereo not shown) [Hexoprenaline sulfate]
Y

Repeat with CC(C)C[C@H]1C(=O)N2CCC[C@H]2[C@]2(O)O[C@](NC(=O)[C@@H]3C=C4c5cccc6[nH]c(Br)c(c56)C[C@H]4N(C)C3)(C(C)C)C(=O)N12 [Bromocriptine mesylate]
Y

Repeat with CCOC(=O)c1ccc(NC(=O)CN2CCCCC2)cc1 [Sulcaine, reference compound]
Y

Repeat with O=C(O)CC[N+](=O)[O-] [3-Nitropropionic acid]
Y

Repeat with CCOP(=S)(Oc1ccc([N+](=O)[O-])cc1)c1ccccc1 (stereo not shown) [EPN]
N

Repeat with C[C@H]1[C@@H]2Cc3ccc(O)cc3[C@@]1(C)CCN2C.C[C@H]1[C@@H]2Cc3ccc(O)cc3[C@@]1(C)CCN2C.O=C(O)/C=C/C(=O)O [(+)-Metazocine fumarate (2:1)]
Y

====

# systemUnderTest: AChE in SH-SY5Y cells (Homo sapiens)
# Sequence (P22303 32-614): as above
# testMethodNotes: cell-based
# testConditions: potency (IC50), SH-SY5Y cells monolayer
Counter-ions that a name gives are not always drawn.
pIC50 values for the compounds below.
Formally, pIC50 is defined as -log10 of the concentration c, with c in mol/L.

Study these solved cases before continuing.
>>> observed("CCOP(=S)(OCC)Oc1ccc([N+](=O)[O-])cc1 [Parathion]")
4.95
>>> observed("Cc1nc(N(C)C)nc(OC(=O)N(C)C)c1C [Pirimicarb]")
5.13
>>> observed("CCOP(=S)(OCC)SCSP(=S)(OCC)OCC [Ethion]")
4.77
>>> observed("CCOC(=O)CC(SP(=O)(OC)OC)C(=O)OCC (stereo not drawn) [Malaoxon]")
5.52
>>> observed("CCCCN(CCCC)SN(C)C(=O)Oc1cccc2c1OC(C)(C)C2 [Carbosulfan]")
5.49
>>> observed("COP(=O)(OC)SCn1c(=O)oc2cc(Cl)cnc21 [Azamethiphos]")
5.55
>>> observed("CCN(CC)CCOc1ccc2c(c1)C(=O)c1cc(OCCN(CC)CC)ccc1-2 [Tilorone, reference compound]")
5.75
>>> observed("CCOP(=S)(OCC)Oc1nc(Cl)c(Cl)cc1Cl [Chlorpyrifos, reference compound]")
4.39
>>> observed("CCN(C(=O)c1cc(C)cc(OC[C@H](C)Nc2ccncc2)c1)C(C)C.Cc1ccc(S(=O)(=O)O)cc1 [GW473178E methyl benzene sulfonic acid]")
4.63
>>> observed("CNC(=O)Oc1ccccc1C(C)C [Isoprocarb]")
5.09

Next, consider the following compound.
Looking for the measured pIC50 of CN1CCCC(n2nc(Cc3ccc(Cl)cc3)c3ccccc3c2=O)CC1 (stereo not drawn) [Azelastine (hydrochloride), reference compound] , can you help?
4.68
